Target chain: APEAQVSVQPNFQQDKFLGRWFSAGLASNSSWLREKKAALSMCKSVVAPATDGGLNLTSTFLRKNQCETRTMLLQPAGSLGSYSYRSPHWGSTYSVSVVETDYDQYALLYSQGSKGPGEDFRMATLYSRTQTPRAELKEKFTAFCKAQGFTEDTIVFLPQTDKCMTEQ
pKd: −log10 of the molar value.
reported metric: pKd

- molecule: "C=CC1=C(C)C2=Cc3c(C=C)c(C)c4[n]3[Fe][n]3c(c(C)c(CCC(=O)O)c3=CC3=NC(=C4)C(C)=C3CCC(=O)O)=CC1=N2 [heme]"
  obs value: 7.40
